Entry source: ChEMBL document CHEMBL2163209

Give measured IC50 for each item. Keep answers brief.
Biological target: Cytochrome P450 11B1, mitochondrial (Homo sapiens)
Sequence (P15538 whole entry): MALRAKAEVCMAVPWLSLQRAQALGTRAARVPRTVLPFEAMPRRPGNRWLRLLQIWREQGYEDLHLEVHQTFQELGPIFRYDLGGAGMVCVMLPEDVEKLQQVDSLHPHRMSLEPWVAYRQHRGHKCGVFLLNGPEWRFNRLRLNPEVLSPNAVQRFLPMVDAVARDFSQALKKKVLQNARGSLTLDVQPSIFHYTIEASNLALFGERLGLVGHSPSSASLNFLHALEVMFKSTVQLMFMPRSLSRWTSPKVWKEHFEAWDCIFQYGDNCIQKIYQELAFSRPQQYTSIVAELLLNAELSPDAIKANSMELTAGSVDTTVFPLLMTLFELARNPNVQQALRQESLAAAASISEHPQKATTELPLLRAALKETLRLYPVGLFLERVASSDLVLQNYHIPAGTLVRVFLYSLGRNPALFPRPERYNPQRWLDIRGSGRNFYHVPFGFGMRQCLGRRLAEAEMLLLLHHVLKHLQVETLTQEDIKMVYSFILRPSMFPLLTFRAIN
Assay: Inhibition of human CYP11B1 expressed in V79MZh cells using [14C]-11-deoxycorticosterone as substrate by HPTLC/phosphoimaging method
Report the figure in nM without appending any unit label.

The reported value for `CN1C(=O)CCc2cc(-c3cccnc3)c(OC3CCCC3)cc21` in terms of IC50 is 1170

# IC50 (compound: `COc1cc2c(cc1-c1cccnc1)CCC(=O)N2C` ) is 1100

# compound `O=C1CCc2cc(-c3cccnc3)c(OCc3ccccc3)cc2N1` ; its IC50 = 44

Entry `O=C1CCc2cc(-c3cccnc3)cc(-c3ccccc3)c2N1` ; IC50 = 16200

Please fill in: IC50 reported for `CCOc1cc2c(cc1-c1cccnc1)CCC(=O)N2C` = 790

The compound listed as `O=C1CCc2cc(-c3cccnc3)cc(-c3cccnc3)c2N1` has a reported IC50 of 4090

According to the records, this compound `CCOc1cc2c(cc1-c1cccnc1)CCC(=O)N2` displays IC50 of 3740

// recorded IC50 for `O=C1CCc2cc(-c3cccnc3)c(OC3CCCC3)cc2N1` : 1080

The value of IC50 measured for the compound `O=C1CCc2cc(-c3cccnc3)cc(Br)c2N1` turned out to be 1420

For reference, reported IC50 for `COc1cc2c(cc1-c1cccnc1)CCC(=O)N2` stands at 2870

IC50 reading for `O=C1CCc2cc(-c3cccnc3)cc(-c3ccsc3)c2N1` : 4590

IC50 recorded for this compound, `CN1C(=O)CCc2cc(-c3cccnc3)c(OCc3ccccc3)cc21` , is 139

# compound `O=C1CCc2cc(-c3cccnc3)c(O)cc2N1` ; its IC50 = 11900
